- SYSTEM_TESTED: T1, LRRC7, Q96NW7
- T1 sequence (Q96NW7 1440-1537, limits assumed, looked up): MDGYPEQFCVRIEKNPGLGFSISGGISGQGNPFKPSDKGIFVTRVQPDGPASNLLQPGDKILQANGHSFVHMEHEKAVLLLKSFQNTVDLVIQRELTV
- ASSAY_EXPLANATION: holdup assay
- Parameters: key: below the threshold = too weak to quantify, mostly under pKd 3.1 to 4
- REPORTED_CONDITIONS: plain residues with an end cap or a label only (N-terminal biotin on a linker: ado-ado)
OBSERVATION_TYPE: pKd

binder="QMNQTLPVQV [EPHB3, P54753]" measured="below the threshold"
binder="PKRSFIESNV [TANC1, Q9C0D5]" measured=4.61
binder="IPLDGETEEL [MYOZ1, Q9NP98]" measured="below the threshold"
binder="PRISRSQSEL [CCDC134, Q9H6E4]" measured="below the threshold"
binder="LPHPHSTTRV [NLGN2, Q8NFZ4]" measured="below the threshold"

Here is the next item to consider.
q: Entry under review: QGPVETESVV [SLC45A4, Q5BKX6] . Reported pKd?
a: 3.73
